Entries annotated with measured GI50
test system: SK-MEL-2; assay: NCI tumour cell line growth inhibition, 48 h
Calls of active or inactive are those of the source. No stated cut-off is given here; in the data, active = GI50 up to about 1.1 µM and inactive = higher.

Example results:
Molecule	Tested on	Test value
Cn1c(CC(O)c2nc3ccccc3n2C)nc2ccccc21 (configuration not stated)	SK-MEL-2	> 31.3 µM (inactive)
C#Cc1cccc(N2C(=O)c3c(c(-c4ccccc4)c(-c4ccc(Cc5ccc(-c6c(-c7ccccc7)c7c(c(-c8ccccc8)c6-c6ccccc6)C(=O)N(c6cccc(C#C)c6)C7=O)cc5)cc4)c(-c4ccccc4)c3-c3ccccc3)C2=O)c1	SK-MEL-2	57.9 µM (inactive)
CC(N/N=C(\S)N1CCN(c2ccccn2)CC1)c1nccc2ccccc12 (configuration not stated)	SK-MEL-2	4.23 µM (inactive)
COc1cc(N(C)C)c(OC)cc1C=C1C=CC=C1	SK-MEL-2	> 100 µM (inactive)
O=C1C2Cc3ccccc3CN2C(=O)N1CCN1CCOCC1 (configuration not stated)	SK-MEL-2	> 100 µM (inactive)
O=S1(=O)OCCCOS(=O)(=O)C1(Br)Br	SK-MEL-2	> 100 µM (inactive)
Cn1cnc2c(sc3nc4ccccc4n32)c1=N	SK-MEL-2	> 100 µM (inactive)
Cc1nc2c(n1Cc1ccc(Cl)cc1)C(=O)c1ccccc1C2=O	SK-MEL-2	> 75 µM (inactive)

I have this molecule here, `O=c1cc(/N=N\c2ccc(Cl)cc2)[nH]c(=O)[nH]1` , and I need its recorded GI50. 13.3 µM (inactive)

What does the data say about its GI50? Entry: COc1cc(C2c3c(ccc4ccccc34)C(=O)C3CCC(=O)N32)cc(OC)c1OC (configuration not stated) > 50 µM (inactive)

Which measured GI50 value corresponds to `COc1cc([C@@H]2c3cc4c(cc3[C@@H](Nc3ccc(/N=C\c5ccc(C(=O)O[C@@H](C(=O)O[C@H]6C[C@@]7(O)[C@@H](OC(=O)c8ccccc8)[C@@H]8[C@]9(OC(C)=O)CO[C@@H]9C[C@H](O)[C@@]8(C)C(=O)[C@H](OC(C)=O)C(=C6C)C7(C)C)[C@@H](NC(=O)c6ccccc6)c6ccccc6)cc5)cc3)[C@H]3COC(=O)[C@H]23)OCO4)cc(OC)c1O` ? > 33.7 µM (inactive)

Query: GI50; subject: CCCCC1C=Cn2c(=O)oc3c(OC(C)C)c(C)c(O)c1c32 (configuration not stated) 1.66 µM (inactive)

GI50 for `Cc1ccc2[nH]c(=N/c3ccccc3C)/c(=N\c3ccccc3C)[nH]c2c1` ? 12.7 µM (inactive)
